# experiment notes: Pharmacokinetic experiment in mice after intragastric administration (plasma and lung tissue, LC/MS/MS)
# Assay type: in vivo
# cond: ICR, mouse, plasma, po, intragastric administration at 20 mg/kg
Recorded half-life split into classes LOW (below 2 h), MEDIUM (2 h to below 6 h), HIGH (6 h or more)

1. Cc1ccc2nc(N3CCS(=O)(=NC4CC4)c4ccccc4C3)nc(N3CC[C@H](N)C3)c2c1 (stereo partly drawn)	HIGH
2. Cc1ccc2nc(N3CCS(=O)(=NC4CCOC4)c4ccccc4C3)nc(N3CC[C@@H](N)C3)c2c1 (stereo partly drawn)	MEDIUM
3. Cc1ccc2nc(N3CCS(=O)(=NC4CC4)c4ccccc4C3)nc(N[C@H]3CNC[C@@H]3F)c2c1 (stereo partly drawn)	MEDIUM
4. Cc1ccc2nc(N3CCS(=O)(=NC4CCOC4)c4ccccc4C3)nc(N3CC[C@H](N)C3)c2c1 (stereo partly drawn)	MEDIUM
5. N[C@H]1CCN(c2nc(N3CCS(=O)(=NCC4CCO4)c4ccccc4C3)nc3ccc(C(F)F)cc23)C1 (stereo partly drawn)	MEDIUM
6. NC1CN(c2nc(N3CCS(=O)(=NC4CC4)c4ccccc4C3)nc3ccc(C(F)F)cc23)C1 (stereo not drawn)	MEDIUM
7. Cc1ccc2nc(N3CCS(=O)(=NC4CC4)c4ccccc4C3)nc(N3CC(CN)C3)c2c1 (stereo not drawn)	HIGH
8. Cc1ccc2nc(N3CCS(=O)(=NC4CC4)c4ccccc4C3)nc(N3CC[C@@H](N)C3)c2c1 (stereo partly drawn)	HIGH
9. Cc1ccc2nc(N3CCS(=O)(=NC4CC4)c4ccccc4C3)nc(N3CC4C(N)C4C3)c2c1 (stereo not drawn)	HIGH
10. COCC(C)N=S1(=O)CCN(c2nc(N3CC[C@H](N)C3)c3cc(C)ccc3n2)Cc2ccccc21 (stereo partly drawn)	MEDIUM
11. Cc1ccc2nc(N3CCS(=O)(=NC4CC4)c4ccccc4C3)nc(NCC3(N)COC3)c2c1C (stereo not drawn)	LOW
12. Cc1ccc2nc(N3CCS(=O)(=O)c4ccccc4C3)nc(NCC3(N)COC3)c2c1 [AK0529, reference compound]	LOW
